Each recorded value in this set is attributed to ChEMBL document CHEMBL4419173.

experimental-target: UniProtKB Q9NZN5
experimental-protocol: Binding affinity to recombinant human LARG (765 to 1138 residues) containing DH-PH catalytic module by microscale thermophoresis analysis
pKd: −log10 of the molar value.
measurement-name: pKd

# value of pKd, UniProtKB Q9NZN5, item "Cc1cccc(COc2cccc(/C=C3\C(=O)NN(c4ccccc4)C3=O)c2)c1" = 7.12 to 7.19

----------
experimental-target: Rho guanine nucleotide exchange factor 12 (Homo sapiens, UniProt Q9NZN5, N983A)
Sequence (Q9NZN5 2-1544 N983A limits assumed): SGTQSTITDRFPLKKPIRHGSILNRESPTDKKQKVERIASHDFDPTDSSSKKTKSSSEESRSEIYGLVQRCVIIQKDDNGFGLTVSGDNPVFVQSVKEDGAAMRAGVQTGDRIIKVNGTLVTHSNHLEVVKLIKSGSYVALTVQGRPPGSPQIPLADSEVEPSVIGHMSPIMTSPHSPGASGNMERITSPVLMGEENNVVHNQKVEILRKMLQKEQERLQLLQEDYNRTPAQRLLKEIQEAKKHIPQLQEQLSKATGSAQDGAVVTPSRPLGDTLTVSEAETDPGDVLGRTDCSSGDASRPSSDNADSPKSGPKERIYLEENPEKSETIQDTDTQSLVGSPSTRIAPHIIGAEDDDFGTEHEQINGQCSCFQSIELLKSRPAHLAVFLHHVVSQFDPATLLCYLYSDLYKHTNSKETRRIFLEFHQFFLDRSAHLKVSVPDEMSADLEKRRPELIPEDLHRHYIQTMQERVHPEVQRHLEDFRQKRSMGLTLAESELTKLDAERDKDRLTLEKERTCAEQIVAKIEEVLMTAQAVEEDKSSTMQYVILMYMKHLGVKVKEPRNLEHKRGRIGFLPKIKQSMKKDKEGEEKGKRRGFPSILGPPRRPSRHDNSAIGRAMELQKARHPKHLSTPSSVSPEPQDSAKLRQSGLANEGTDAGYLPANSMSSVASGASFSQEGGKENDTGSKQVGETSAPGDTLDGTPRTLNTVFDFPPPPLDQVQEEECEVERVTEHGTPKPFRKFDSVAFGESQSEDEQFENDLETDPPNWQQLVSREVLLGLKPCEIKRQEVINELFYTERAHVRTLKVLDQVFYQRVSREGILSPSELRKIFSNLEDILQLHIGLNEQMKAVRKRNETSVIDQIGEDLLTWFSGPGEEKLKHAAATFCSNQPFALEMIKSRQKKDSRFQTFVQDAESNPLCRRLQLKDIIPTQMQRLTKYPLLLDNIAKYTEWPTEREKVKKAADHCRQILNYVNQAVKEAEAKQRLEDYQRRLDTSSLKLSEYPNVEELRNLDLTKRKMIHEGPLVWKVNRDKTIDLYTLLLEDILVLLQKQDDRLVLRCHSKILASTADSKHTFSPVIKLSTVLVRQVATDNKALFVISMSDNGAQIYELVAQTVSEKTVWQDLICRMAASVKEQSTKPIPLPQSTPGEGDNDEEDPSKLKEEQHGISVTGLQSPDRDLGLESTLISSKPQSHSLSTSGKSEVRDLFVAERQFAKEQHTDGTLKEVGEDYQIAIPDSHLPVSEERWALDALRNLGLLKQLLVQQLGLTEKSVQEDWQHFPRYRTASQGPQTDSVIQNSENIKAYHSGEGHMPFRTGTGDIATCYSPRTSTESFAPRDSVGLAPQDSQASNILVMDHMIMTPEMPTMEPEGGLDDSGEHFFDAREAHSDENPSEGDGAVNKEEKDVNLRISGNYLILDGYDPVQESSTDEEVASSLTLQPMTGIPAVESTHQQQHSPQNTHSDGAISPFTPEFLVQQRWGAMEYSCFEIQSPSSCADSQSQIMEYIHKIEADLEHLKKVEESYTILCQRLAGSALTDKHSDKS
experimental-protocol: Binding affinity to recombinant human LARG (765 to 1138 residues) N983A mutant by microscale thermophoresis analysis
pKd: −log10 of the molar value.
measurement-name: pKd

# value of pKd, Rho guanine nucleotide exchange factor 12 (Homo sapiens, UniProt Q9NZN5, N983A), item "Cc1cccc(COc2cccc(/C=C3\C(=O)NN(c4ccccc4)C3=O)c2)c1" = < 3.30

----------
experimental-target: Rho guanine nucleotide exchange factor 12 (Homo sapiens, UniProt Q9NZN5, V1099A)
Sequence (Q9NZN5 2-1544 V1099A limits assumed): as the sequence (Q9NZN5 2-1544 N983A limits assumed) above, with A982N, V1098A counted along it
experimental-protocol: Binding affinity to recombinant human LARG (765 to 1138 residues) V1099A mutant by microscale thermophoresis analysis
measurement-name: pKd
One number for each entry, as −log10 of the molar value.

Entry "Cc1cccc(COc2cccc(/C=C3\C(=O)NN(c4ccccc4)C3=O)c2)c1" , pKd reported as 7.10

----------
experimental-target: Rho GEF 12/Transforming protein RhoA (Homo sapiens) (UniProt P61586+Q9NZN5)
experimental-protocol: Inhibition of His6-tagged human LARG PH-DH domain expressed in mouse NIH/3T3 cells assessed as reduction in human full length GST-tagged RhoA (1 to 193 residues) interaction with LARG RhoGEF at 100 uM incubated for 1 hr by Western blot analysis relative to Y16
Type: cell-based
Give inhibition for every item shown.

Hi, could you look up inhibition for each item in my list?
1. O=C1NN(c2ccccc2)C(=O)/C1=C\C1=NCc2ccccc21
2. COc1cc(/C=C2/C(=O)NN(c3ccccc3)C2=O)cc(Br)c1OCCOc1ccc(C)cc1
3. O=C1NN(c2ccccc2)C(=O)/C1=C/c1ccc(OCc2ccccc2)cc1
4. O=C1/C(=C\c2ccccc2OCc2ccccc2)CNN1c1ccc(Br)cc1

a:
1. 6.57%
2. 13.8%
3. 27.1%
4. 7.34%

# value of inhibition, Rho GEF 12/Transforming protein RhoA (Homo sapiens) (UniProt P61586+Q9NZN5), item "COc1cc(/C=C2/C(=O)NN(c3ccccc3)C2=O)ccc1O" = 13%

----------
Give IC50 for every item shown.
experimental-target: UniProtKB Q9NZN5
experimental-protocol: Inhibition of human LARG (765 to 1138 residues) RhoGEF binding to human full length RhoA (1 to 193 residues)
One number for each entry, in µM.

Entry "N[C@H](Cc1c[nH]c2ccccc12)C(=O)N/N=C/c1ccc2nccnc2c1" , IC50 reported as 10

Further cases:
Entry "Cc1cccc(COc2cccc(/C=C3\C(=O)NN(c4ccccc4)C3=O)c2)c1" , IC50 reported as 5
